Test system: PKN2;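 note: KINOMEscan scanMAX binding as percent activity remaining versus control; lower means stronger binding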
Conditions: Compound Concentration (nM):1000
# note: exactly 90% is not below, so it is N; use Y for Percent Control strictly under it

{"columns": ["Compound", "Assigned Category"],
 "data": [
  ["NS(=O)(=O)c1ccc(N/N=C2\\C(=O)Nc3ccc(-c4cnco4)cc32)cc1", "Y"],
  ["CCS(=O)(=O)c1ccc(OC)c(Nc2ncc(-c3cccc(F)c3)o2)c1 [GW621970X]", "Y"],
  ["C/C(Nc1ccc(S(N)(=O)=O)cc1)=C1/C(=O)Nc2ccccc21 [GW335962X]", "Y"],
  ["COc1cccc(-c2c[nH]c3c(N/N=C/c4ccncc4)ncnc23)c1 [GW814408X]", "N"]
]}

Below: the item to evaluate.
Ask | Would you kindly verify if Percent Control of Cl.O=S1CCN(Cc2ccc(-c3ccc4ncnc(Nc5ccc(OCc6ccccc6)c(F)c5)c4c3)o2)CC1 [GW576924A] is strictly less than 90%?
Reply | N
